Data origin: paper PMC10786891

Here, each record is paired with measured Kd data.
target-or-system: T1, EsCas13d, nuclease-dead (Eubacterium siraeum, UniProt B0MS50, R295A;H300A;R849A;H854A)
T1 sequence: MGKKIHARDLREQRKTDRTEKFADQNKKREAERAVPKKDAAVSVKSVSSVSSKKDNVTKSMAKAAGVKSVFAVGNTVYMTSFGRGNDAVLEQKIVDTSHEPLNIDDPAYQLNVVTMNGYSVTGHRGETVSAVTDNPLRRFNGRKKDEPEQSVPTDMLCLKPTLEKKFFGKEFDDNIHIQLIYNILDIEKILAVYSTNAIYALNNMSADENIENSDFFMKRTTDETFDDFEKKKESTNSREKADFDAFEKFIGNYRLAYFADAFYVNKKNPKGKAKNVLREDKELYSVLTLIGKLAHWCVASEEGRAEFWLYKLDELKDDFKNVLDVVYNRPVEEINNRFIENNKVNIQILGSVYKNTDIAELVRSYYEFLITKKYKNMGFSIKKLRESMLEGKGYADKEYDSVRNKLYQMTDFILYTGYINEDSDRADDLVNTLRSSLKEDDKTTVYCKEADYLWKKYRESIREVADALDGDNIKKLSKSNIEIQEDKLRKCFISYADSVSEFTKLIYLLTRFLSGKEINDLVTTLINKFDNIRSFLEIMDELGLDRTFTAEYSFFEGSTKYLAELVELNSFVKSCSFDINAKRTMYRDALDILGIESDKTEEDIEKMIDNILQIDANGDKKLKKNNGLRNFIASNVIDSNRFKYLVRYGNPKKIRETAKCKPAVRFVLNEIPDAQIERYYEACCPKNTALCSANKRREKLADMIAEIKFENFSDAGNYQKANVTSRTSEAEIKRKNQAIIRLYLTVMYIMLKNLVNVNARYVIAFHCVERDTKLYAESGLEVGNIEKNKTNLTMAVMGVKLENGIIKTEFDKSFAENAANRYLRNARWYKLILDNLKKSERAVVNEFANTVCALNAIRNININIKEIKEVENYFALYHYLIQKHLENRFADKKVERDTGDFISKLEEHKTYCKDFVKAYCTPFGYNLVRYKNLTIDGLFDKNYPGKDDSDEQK
method-notes: crRNA (strand 1, pre-loaded); Mg2+; 40 mM Tris-HCl pH 7.5, 150 mM NaCl, 6 mM MgCl2, 1 mM DTT, 0.1% Tween-20, 0.2 mg/ml BSA; 25 C; 10 min per concentration, then washed
details: tags: His6-TwinStrep-SUMO cleaved; N-terminal SNAP kept (SNAP-Surface 488); label: 3' end held by stalled T7 RNA polymerase
measurement-label: Kd (nM)

binder: target 3 A5C (mixed) RNA 1: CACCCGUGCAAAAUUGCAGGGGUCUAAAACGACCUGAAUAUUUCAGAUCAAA RNA 2: GGGAAUGGAUCCACAUCUACGAAUUCGUUUUUGAUCUGAAAUAUUCCGGUCUGCAGAUCGGAAGAGCACACGU
measurement-label: Kd
uom: nM
val: 64.5

binder: target 1 insG 3' of 18,insC 3' of 13 (mixed) RNA 1: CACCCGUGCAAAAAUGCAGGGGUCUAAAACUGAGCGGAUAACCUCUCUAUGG RNA 2: GGGAAUGGAUCCACAUCUACGAAUUCGUACCAUAGGAGAGCGUUAUCCGCUCACCGAGAUCGGAAGAGCACACGU
measurement-label: Kd
uom: nM
val: 70

binder: target 1 C4A,G15U (mixed) RNA 1: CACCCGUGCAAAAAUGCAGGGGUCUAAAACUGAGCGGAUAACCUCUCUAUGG RNA 2: GGGAAUGGAUCCACAUCUACGAAUUCGUACCAUAGAUAGGUUAUCCGAUCACCGAGAUCGGAAGAGCACACGU
measurement-label: Kd
uom: nM
val: 51

binder: target 1 complement block 2-14 (mixed) RNA 1: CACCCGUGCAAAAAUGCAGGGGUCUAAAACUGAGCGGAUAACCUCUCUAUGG RNA 2: GGGAAUGGAUCCACAUCUACGAAUUCGUACCAUAGAGUCCAAUAGGCGAGACCGAGAUCGGAAGAGCACACGU
measurement-label: Kd
uom: nM
val: 71

binder: target 1 U8C,G12U (mixed) RNA 1: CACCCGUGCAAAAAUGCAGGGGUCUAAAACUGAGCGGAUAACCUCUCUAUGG RNA 2: GGGAAUGGAUCCACAUCUACGAAUUCGUACCAUAGAGAGUUUACCCGCUCACCGAGAUCGGAAGAGCACACGU
measurement-label: Kd
uom: nM
val: 10.7

binder: target 3 G3C,C6A (mixed) RNA 1: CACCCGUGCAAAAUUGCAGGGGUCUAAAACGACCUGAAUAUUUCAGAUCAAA RNA 2: GGGAAUGGAUCCACAUCUACGAAUUCGUUUUUGAUCUGAAAUAUUAAGCUCUGCAGAUCGGAAGAGCACACGU
measurement-label: Kd
uom: nM
val: 27

binder: target 2 MT 5'PFS AGG 3'PFS UCC (mixed) RNA 1: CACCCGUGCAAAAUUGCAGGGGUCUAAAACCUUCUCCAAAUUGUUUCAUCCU RNA 2: GGGAAUGGAUCCACAUCUACGAAUUCAGGAGGAUGAAACAAUUUGGAGAAGUCCAGAUCGGAAGAGCACACGU
measurement-label: Kd
uom: nM
val: 26

binder: target 3 G4U,A18G (mixed) RNA 1: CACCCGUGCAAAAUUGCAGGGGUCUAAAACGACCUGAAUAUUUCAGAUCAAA RNA 2: GGGAAUGGAUCCACAUCUACGAAUUCGUUUUUGGUCUGAAAUAUUCAUGUCUGCAGAUCGGAAGAGCACACGU
measurement-label: Kd
uom: nM
val: 9.75
